- experimental target: Thymidine phosphorylase (Rattus norvegicus) (UniProt Q5FVR2)
- Sequence (Q5FVR2 whole entry): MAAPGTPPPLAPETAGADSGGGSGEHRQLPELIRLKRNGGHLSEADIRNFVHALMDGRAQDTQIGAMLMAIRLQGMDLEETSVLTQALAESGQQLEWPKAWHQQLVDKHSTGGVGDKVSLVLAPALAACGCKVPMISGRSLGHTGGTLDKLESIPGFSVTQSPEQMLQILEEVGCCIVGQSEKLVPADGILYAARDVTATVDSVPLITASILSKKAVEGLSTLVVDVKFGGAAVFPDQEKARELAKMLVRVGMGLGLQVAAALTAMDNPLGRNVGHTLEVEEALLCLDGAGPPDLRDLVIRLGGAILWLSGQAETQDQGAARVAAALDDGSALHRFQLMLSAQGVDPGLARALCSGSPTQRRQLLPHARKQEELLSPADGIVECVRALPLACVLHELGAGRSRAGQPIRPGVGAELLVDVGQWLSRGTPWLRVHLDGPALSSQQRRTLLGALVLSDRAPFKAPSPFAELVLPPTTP
- protocol notes: Inhibition of thymidine phosphorylase in T cell lymphomas of Sprague-Dawley rat assessed as residual activity at 10 uM in presence of 100 uM thymidine and 200 uM phosphate
quantity kind: Activity (%)

molecule	Activity / %
Cc1cn(CCOC2(P(=O)(O)O)CCCCC2)c(=O)[nH]c1=O	21
Cc1cn([C@H]2C[C@H]3O[C@@](c4ccccc4)(P(=O)(O)O)OC[C@H]3O2)c(=O)[nH]c1=O	47
Cc1cn([C@H]2C[C@H](CO)N(C(=O)P(=O)(O)O)C2)c(=O)[nH]c1=O	2
O=c1ccn([C@H]2C[C@@H](CO)N(CP(=O)(O)O)C2)c(=O)[nH]1	17
Cc1cn(C2CCN(C(=S)P(=O)(O)O)C2)c(=O)[nH]c1=O (racemic)	9
Cc1cn([C@H]2C[C@H]3O[C@](c4ccccc4)(P(=O)(O)O)OC[C@H]3O2)c(=O)[nH]c1=O	4
Cc1cn(C2CCN(C(=O)P(=O)(O)O)C2)c(=O)[nH]c1=O (racemic)	3
Cc1cn(CCOC2(P(=O)(O)O)CCCC2)c(=O)[nH]c1=O	14

a: Cc1cn(C2CCN(C(=O)CP(=O)(O)O)C2)c(=O)[nH]c1=O (racemic)
b: Cc1cn(C2CCN(CP(=O)(O)O)C2)c(=O)[nH]c1=O (racemic)
# argmax over Activity for candidates a and b Write down the label attached to your selection.
a

A: Cc1cn([C@@H]2CN(C(=O)P(=O)(O)O)C[C@H]2O)c(=O)[nH]c1=O
B: Cc1cn([C@@H]2CN(C(=S)P(=O)(O)O)C[C@@H]2O)c(=O)[nH]c1=O
C: Cc1cn(CC(OCP(=O)(O)O)Oc2ccccc2)c(=O)[nH]c1=O (stereo not given)
D: Cc1cn([C@H]2C[C@H]3O[C@@](CBr)(P(=O)(O)O)OC[C@H]3O2)c(=O)[nH]c1=O
// smallest Activity at index 0, largest at the end Use the labels to give the requested order.
B, C, A, D
(B: 0%, C: 1%, A: 4%, D: 26%)
